Exercise: state measured Ki for each of the molecules provided.
Target: MDMX (Homo sapiens, UniProt O15151)
Sequence (O15151 1-125): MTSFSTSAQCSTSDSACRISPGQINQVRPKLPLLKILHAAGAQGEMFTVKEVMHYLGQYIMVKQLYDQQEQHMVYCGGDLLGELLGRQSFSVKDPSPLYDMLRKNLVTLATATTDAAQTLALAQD
Assay: Competitive fluorescence polarization assay for MDMX
Format: binding
Conditions: competitive FP assay, read-out: Ki (MDMX)
Where a SMILES comes first, the peptide text is derived from it. Bridges are numbered along the chain shown (N, C = ends). [ ]: non-standard residue; d: D form. Trp(6-Cl) = N[C@@H](Cc1c[nH]c2cc(Cl)ccc12)C(=O)O; R8 = C=CCCCCCC[C@@](C)(N)C(=O)O; S5 = C=CCCC[C@](C)(N)C(=O)O

Value lookup for Ki; key = CC(=O)N[C@@H](CC(C)C)C(=O)N[C@H](C(=O)N[C@@H](Cc1ccccc1)C(=O)N[C@]1(C)CCCCCC/C=C/CCC[C@@](C)(C(=O)N[C@@H](CO)C(=O)N[C@@H](C)C(=O)N[C@@H](C)C(N)=O)NC(=O)[C@H](CC(C)C)NC(=O)[C@H](CCC(N)=O)NC(=O)[C@H](C)NC(=O)[C@H](Cc2c[nH]c3cc(Cl)ccc23)NC(=O)[C@H](Cc2ccc(O)cc2)NC(=O)[C@H](C)NC1=O)[C@@H](C)O [compound 99] (Ac-LTF[R8]AY[Trp(6-Cl)]AQL[S5]SAA-NH2; staple (E) 4-11) 10 to 100 nM

Value lookup for Ki; key = CC(=O)N[C@@H](CC(C)C)C(=O)N[C@H](C(=O)N[C@@H](Cc1ccccc1)C(=O)N[C@]1(C)CCCCCCC=CCCC[C@@](C)(C(=O)N[C@@H](CO)C(=O)N[C@@H](Cc2c[nH]c3ccccc23)C(=O)N[C@@H](C)C(N)=O)NC(=O)[C@H](CC(C)C)NC(=O)[C@H](CCC(N)=O)NC(=O)[C@H](C)NC(=O)[C@H](Cc2c[nH]c3ccccc23)NC(=O)[C@H](Cc2ccc(O)cc2)NC(=O)[C@H](C)NC1=O)[C@@H](C)O (single isomer, unassigned) [compound 120] 10 to 100 nM

----------
Exercise: state measured Molar Ellipticity 50% TFE (222 in 50% TFE) for each of the compounds provided.
Test: Circular dichroism (CD) analysis of alpha-helicity
Type: physicochemical
Conditions: CD buffer with 50% TFE, 222 nm, 4° C.
Just the number please, in deg cm2 dmol-1, no unit attached.

Value lookup for Molar Ellipticity 50% TFE (222 in 50% TFE); key = CC(=O)N[C@@H](CC(C)C)C(=O)N[C@H](C(=O)N[C@@H](Cc1ccccc1)C(=O)N[C@]1(C)CCCCCCC=CCCC[C@@](C)(C(=O)N[C@@H](C)C(=O)N[C@@H](C)C(=O)N[C@@H](C)C(=O)N[C@H](C)C(N)=O)NC(=O)[C@H](CC(C)C)NC(=O)[C@H](CCC(N)=O)NC(=O)[C@H](C)NC(=O)[C@H](Cc2c[nH]c3ccccc23)NC(=O)[C@H](Cc2ccc(O)cc2)NC(=O)[C@H](C)NC1=O)[C@@H](C)O (single isomer, unassigned) −17974

Value lookup for Molar Ellipticity 50% TFE (222 in 50% TFE); key = `CC(=O)N[C@@H](CC(C)C)C(=O)N[C@H](C(=O)N[C@@H](Cc1ccccc1)C(=O)N[C@]1(C)CCCCCCC=CCCC[C@@](C)(C(=O)N[C@@H](CO)C(=O)N[C@@H](C)C(=O)N[C@@H](C)C(N)=O)NC(=O)[C@H](CC(C)C)NC(=O)[C@H](CCC(N)=O)NC(=O)[C@H](C)NC(=O)[C@H](Cc2c[nH]c3ccccc23)NC(=O)[C@H](Cc2ccc(O)cc2)NC(=O)[C@H](C)NC1=O)[C@@H](C)O` −16623.4

Value lookup for Molar Ellipticity 50% TFE (222 in 50% TFE); key = `CC[C@H](C)[C@H](NC(=O)[C@H](C)NC(=O)[C@H](C)NC(=O)[C@]1(C)CCC/C=C/CCCCCC[C@@](C)(NC(=O)[C@H](Cc2ccccc2)NC(=O)[C@@H](NC(=O)[C@H](CC(C)C)NC(C)=O)[C@@H](C)O)C(=O)N[C@@H](C)C(=O)N[C@@H](Cc2ccc(O)cc2)C(=O)N[C@@H](Cc2c[nH]c3ccccc23)C(=O)N[C@@H](C)C(=O)N[C@@H](CCC(N)=O)C(=O)N[C@@H](CC(C)C)C(=O)N1)C(=O)N[C@H](C)C(N)=O` −17957

----------
Tested on: SJSA-1 cells
Assay: Cell lysis by peptidomimetic macrocycles (LDH release)
Type: cell-based
Settings: 6.25 uM, 1 h at 37C
Where a SMILES comes first, the peptide text is derived from it. Bridges are numbered along the chain shown (N, C = ends). [ ]: non-standard residue; d: D form. R8 = C=CCCCCCC[C@@](C)(N)C(=O)O; hLeu = CC(C)CC[C@H](N)C(=O)O; S5 = C=CCCC[C@](C)(N)C(=O)O
Exercise: state measured 6.25 uM % Lysed cells (1 h LDH) for each of the compounds provided.
Just the number please, in %, no unit attached.

Form field - read-out: 6.25 uM % Lysed cells (1 h LDH); system: SJSA-1 cells; submitted item: CC(C)CC[C@@H]1NC(=O)[C@H](CCC(N)=O)NC(=O)[C@H](C)NC(=O)[C@H](Cc2c[nH]c3ccccc23)NC(=O)[C@H](Cc2ccc(O)cc2)NC(=O)[C@H](CCC(=O)O)NC(=O)[C@](C)(NC(=O)[C@H](Cc2ccccc2)NC(=O)[C@@H](NC(=O)[C@H](CC(C)C)NC(=O)C(C)(C)C)[C@@H](C)O)CCCCCCC=CCCC[C@@](C)(C(=O)N[C@@H](CO)C(=O)N[C@@H](C)C(=O)N[C@@H](C)C(N)=O)NC1=O [compound 284] 5

Form field - read-out: 6.25 uM % Lysed cells (1 h LDH); system: SJSA-1 cells; submitted item: CC[C@H](C)[C@H](NC(=O)[C@H](C)NC(=O)[C@H](C)NC(=O)[C@]1(C)CCCC=CCCCCCC[C@@](C)(NC(=O)[C@H](Cc2ccccc2)NC(=O)[C@@H](NC(=O)[C@H](CC(C)C)NC(C)=O)[C@@H](C)O)C(=O)N[C@@H](CCC(=O)O)C(=O)N[C@@H](Cc2c[nH]cn2)C(=O)N[C@@H](Cc2c[nH]c3ccccc23)C(=O)N[C@@H](C)C(=O)N[C@@H](CCC(N)=O)C(=O)N[C@@H](CC(C)C)C(=O)N1)C(=O)N[C@H](C)C(N)=O (single isomer, unassigned) [compound 223] −2

Form field - read-out: 6.25 uM % Lysed cells (1 h LDH); system: SJSA-1 cells; submitted item: CC(=O)N[C@@H](CC(C)C)C(=O)N[C@H](C(=O)N[C@@H](Cc1ccccc1)C(=O)N[C@]1(C)CCCCCCC=CCCC[C@@](C)(C(=O)N[C@@H](CO)C(=O)N[C@@H](C)C(=O)N[C@@H](CCC(C)C)C(N)=O)NC(=O)[C@H](CC(C)C)NC(=O)[C@H](CCC(N)=O)NC(=O)[C@H](C)NC(=O)[C@H](Cc2c[nH]c3ccccc23)NC(=O)[C@H](Cc2ccc(O)cc2)NC(=O)[C@H](C)NC1=O)[C@@H](C)O [compound 6] (Ac-LTF[R8]AYWAQL[S5]SA[hLeu]-NH2; staple 4-11) 1

Form field - read-out: 6.25 uM % Lysed cells (1 h LDH); system: SJSA-1 cells; submitted item: CC(=O)N[C@@H](CC(C)C)C(=O)N[C@H](C(=O)N[C@@H](Cc1ccccc1)C(=O)N[C@]1(C)CCCCCCC=CCCC[C@@](C)(C(=O)N[C@@H](CO)C(=O)N[C@H](C(=O)N[C@@H](CO)C(N)=O)C(C)C)NC(=O)[C@H](CC(C)C)NC(=O)[C@H](CCC(N)=O)NC(=O)[C@H](C)NC(=O)[C@H](Cc2c[nH]c3ccccc23)NC(=O)[C@H](Cc2ccc(O)cc2)NC(=O)[C@H](C)NC1=O)[C@@H](C)O [compound 121] (Ac-LTF[R8]AYWAQL[S5]SVS-NH2; staple 4-11) 1

Form field - read-out: 6.25 uM % Lysed cells (1 h LDH); system: SJSA-1 cells; submitted item: CC[C@H](C)[C@H](NC(=O)[C@H](C)NC(=O)[C@H](C)NC(=O)[C@]1(C)CCCC=CCCCCCC[C@@](C)(NC(=O)[C@H](Cc2ccccc2)NC(=O)[C@@H](NC(=O)[C@H](CCC(=O)O)NC(C)=O)[C@@H](C)O)C(=O)N[C@@H](CCC(=O)O)C(=O)N[C@@H](Cc2c[nH]cn2)C(=O)N[C@@H](Cc2c[nH]c3ccccc23)C(=O)N[C@@H](C)C(=O)N[C@@H](CCC(N)=O)C(=O)N[C@@H](CC(C)C)C(=O)N1)C(=O)N[C@H](C)C(N)=O (single isomer, unassigned) [compound 175] 3

----------
Molecular target: MDM2 (Homo sapiens, UniProt Q00987)
Sequence (Q00987 1-125): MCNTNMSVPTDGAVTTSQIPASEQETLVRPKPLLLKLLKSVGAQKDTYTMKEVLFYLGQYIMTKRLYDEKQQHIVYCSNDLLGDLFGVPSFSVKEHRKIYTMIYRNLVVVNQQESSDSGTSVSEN
Experiment: Competitive fluorescence polarization assay for MDM2
Type: binding
Conditions: competitive FP assay, MDM2; read-out: Ki (MDM2)
pKi: −log10 of the molar value.
Exercise: state measured pKi for each of the compounds provided.

Form field - read-out: pKi; system: MDM2 (Homo sapiens, UniProt Q00987); submitted item: CCCC[C@H](NC(=O)[C@H](C)NC(=O)[C@H](C)NC(=O)[C@]1(C)CCCC=CCCCCCC[C@@](C)(NC(=O)[C@H](Cc2ccccc2)NC(=O)[C@@H](NC(=O)[C@H](CC(C)C)NC(C)=O)[C@@H](C)O)C(=O)N[C@@H](C)C(=O)N[C@@H](Cc2ccc(O)cc2)C(=O)N[C@@H](Cc2c[nH]c3ccccc23)C(=O)N[C@@H](C)C(=O)N[C@@H](CCC(N)=O)C(=O)N[C@@H](CC(C)C)C(=O)N1)C(=O)N[C@H](CC(C)C)C(N)=O (single isomer, unassigned) > 8.00

Form field - read-out: pKi; system: MDM2 (Homo sapiens, UniProt Q00987); submitted item: CC(=O)N[C@@H](CC(C)C)C(=O)N[C@H](C(=O)N[C@@H](Cc1ccccc1)C(=O)N[C@]1(C)CCCCCCC=CCCC[C@@](C)(C(=O)N[C@@H](CO)C(=O)N[C@@H](C)C(=O)N[C@@H](CO)C(N)=O)NC(=O)[C@H](CC(C)C)NC(=O)[C@H](CCC(N)=O)NC(=O)[C@H](C)NC(=O)[C@H](Cc2c[nH]c3ccccc23)NC(=O)[C@H](Cc2ccc(O)cc2)NC(=O)[C@H](C(C)C)NC1=O)[C@@H](C)O (single isomer, unassigned) > 8.00
